All figures here come from patent US8586588B2.

Structures can show the parent of a compound that is named as a salt.
property measured: melting point

Use the examples below as a reference point.
C[C@@H]1CCCN1CCCOc1ccc(-c2ccc(=O)n(-c3ccccc3)n2)cc1F (as salt: HCl) = 190 to 191 °C
CC(C)N1CCC(Oc2ccc(-c3ccc(=O)[nH]n3)cn2)CC1 = 195 to 197 °C

Q) Requested read-out: melting point. Entry: Cn1nc(-c2ccc(OCC3CCN(C4CCCC4)CC3)cc2)ccc1=O (as salt: HCl)
A) 250 to 251 °C

Q) Requested read-out: melting point. Entry: C[C@@H]1CCCN1CCCOc1ccc(C2=NNC(=O)C3CCCC23)cc1 (stereo partly drawn)
A) 218 to 219 °C

Q) Requested read-out: melting point. Entry: Cn1nc(-c2ccc(OCC3CCN(C4CCC4)CC3)cc2)ccc1=O (as salt: HCl)
A) 250 to 252 °C

Q) Requested read-out: melting point. Entry: Cc1nn(-c2ccsc2)c(=O)cc1-c1ccc(OC2CCN(C3CCC3)CC2)cc1 (as salt: HCl)
A) 277 to 279 °C

Q) Requested read-out: melting point. Entry: COc1cc(-c2ccc(=O)[nH]n2)ccc1OCCCN1CCC[C@H]1C
A) 148 °C (dec.)
